settings: in ethanol, 332.15 K
metric-name: solubility (mole fraction)

INSERT INTO results (compound, result) VALUES
  ('CC(C)(C)c1ccc(OP2OCC3(CO2)COP(Oc2ccc(C(C)(C)C)cc2C(C)(C)C)OC3)c(C(C)(C)C)c1 (stereo unspecified)', 0.000669);

---

details: in isopropanol, 333.35 K
metric-name: solubility (mole fraction)

INSERT INTO results (molecule, result) VALUES
  ('CC(C)(C)c1ccc(OP2OCC3(CO2)COP(Oc2ccc(C(C)(C)C)cc2C(C)(C)C)OC3)c(C(C)(C)C)c1 (stereo unspecified)', 0.00163);

---

settings: in ethanol, 322.95 K
metric-name: solubility (mole fraction)

INSERT INTO results (molecule, metric_name, result) VALUES
  ('CC(C)(C)c1ccc(OP2OCC3(CO2)COP(Oc2ccc(C(C)(C)C)cc2C(C)(C)C)OC3)c(C(C)(C)C)c1 (stereo unspecified)', 'solubility (mole fraction)', 0.000426);

---

settings: in ethanol, 303.25 K
metric-name: solubility (mole fraction)

INSERT INTO assay_data (compound, metric_name, result) VALUES
  ('CC(C)(C)c1ccc(OP2OCC3(CO2)COP(Oc2ccc(C(C)(C)C)cc2C(C)(C)C)OC3)c(C(C)(C)C)c1 (stereo unspecified)', 'solubility (mole fraction)', 0.000185);

---

details: in tert-butanol, 302.95 K
metric-name: solubility (mole fraction)

INSERT INTO assay_data (compound, result) VALUES
  ('CC(C)(C)c1ccc(OP2OCC3(CO2)COP(Oc2ccc(C(C)(C)C)cc2C(C)(C)C)OC3)c(C(C)(C)C)c1 (stereo unspecified)', 0.000674);

---

settings: in n-propanol, 308.15 K
metric-name: solubility (mole fraction)

INSERT INTO measurements (compound, result) VALUES
  ('CC(C)(C)c1ccc(OP2OCC3(CO2)COP(Oc2ccc(C(C)(C)C)cc2C(C)(C)C)OC3)c(C(C)(C)C)c1 (stereo unspecified)', 0.000582);

---

conditions: in tert-butanol, 323.05 K
metric-name: solubility (mole fraction)

INSERT INTO assay_data (molecule, metric_name, result) VALUES
  ('CC(C)(C)c1ccc(OP2OCC3(CO2)COP(Oc2ccc(C(C)(C)C)cc2C(C)(C)C)OC3)c(C(C)(C)C)c1 (stereo unspecified)', 'solubility (mole fraction)', 0.00222);

---

conditions: in methanol, 318.15 K
metric-name: solubility (mole fraction)

INSERT INTO measurements (molecule, result) VALUES
  ('CC(C)(C)c1ccc(OP2OCC3(CO2)COP(Oc2ccc(C(C)(C)C)cc2C(C)(C)C)OC3)c(C(C)(C)C)c1 (stereo unspecified)', 0.000119);

---

details: in tert-butanol, 332.95 K
metric-name: solubility (mole fraction)

INSERT INTO assay_data (molecule, result) VALUES
  ('CC(C)(C)c1ccc(OP2OCC3(CO2)COP(Oc2ccc(C(C)(C)C)cc2C(C)(C)C)OC3)c(C(C)(C)C)c1 (stereo unspecified)', 0.00379);

---

conditions: in methanol, 304.65 K
metric-name: solubility (mole fraction)

INSERT INTO results (compound, result) VALUES
  ('CC(C)(C)c1ccc(OP2OCC3(CO2)COP(Oc2ccc(C(C)(C)C)cc2C(C)(C)C)OC3)c(C(C)(C)C)c1 (stereo unspecified)', '5.05e-05');

---

conditions: in isopropanol, 304.15 K
metric-name: solubility (mole fraction)

INSERT INTO assay_data (molecule, result) VALUES
  ('CC(C)(C)c1ccc(OP2OCC3(CO2)COP(Oc2ccc(C(C)(C)C)cc2C(C)(C)C)OC3)c(C(C)(C)C)c1 (stereo unspecified)', 0.000296);

---

details: in methanol, 308.25 K
metric-name: solubility (mole fraction)

INSERT INTO assay_data (compound, result) VALUES
  ('CC(C)(C)c1ccc(OP2OCC3(CO2)COP(Oc2ccc(C(C)(C)C)cc2C(C)(C)C)OC3)c(C(C)(C)C)c1 (stereo unspecified)', '5.84e-05');

---

details: in ethanol, 308.15 K
metric-name: solubility (mole fraction)

INSERT INTO measurements (compound, metric_name, result) VALUES
  ('CC(C)(C)c1ccc(OP2OCC3(CO2)COP(Oc2ccc(C(C)(C)C)cc2C(C)(C)C)OC3)c(C(C)(C)C)c1 (stereo unspecified)', 'solubility (mole fraction)', 0.000249);

---

details: in n-propanol, 322.75 K
metric-name: solubility (mole fraction)

INSERT INTO measurements (compound, result) VALUES
  ('CC(C)(C)c1ccc(OP2OCC3(CO2)COP(Oc2ccc(C(C)(C)C)cc2C(C)(C)C)OC3)c(C(C)(C)C)c1 (stereo unspecified)', 0.00113);

---

details: in methanol, 322.65 K
metric-name: solubility (mole fraction)

INSERT INTO measurements (compound, result) VALUES
  ('CC(C)(C)c1ccc(OP2OCC3(CO2)COP(Oc2ccc(C(C)(C)C)cc2C(C)(C)C)OC3)c(C(C)(C)C)c1 (stereo unspecified)', 0.000154);

---

conditions: in n-propanol, 313.05 K
metric-name: solubility (mole fraction)

INSERT INTO assay_data (compound, result) VALUES
  ('CC(C)(C)c1ccc(OP2OCC3(CO2)COP(Oc2ccc(C(C)(C)C)cc2C(C)(C)C)OC3)c(C(C)(C)C)c1 (stereo unspecified)', 0.000735);

---

details: in ethanol, 318.15 K
metric-name: solubility (mole fraction)

INSERT INTO measurements (molecule, metric_name, result) VALUES
  ('CC(C)(C)c1ccc(OP2OCC3(CO2)COP(Oc2ccc(C(C)(C)C)cc2C(C)(C)C)OC3)c(C(C)(C)C)c1 (stereo unspecified)', 'solubility (mole fraction)', 0.000365);

---

settings: in isopropanol, 313.15 K
metric-name: solubility (mole fraction)

INSERT INTO measurements (compound, result) VALUES
  ('CC(C)(C)c1ccc(OP2OCC3(CO2)COP(Oc2ccc(C(C)(C)C)cc2C(C)(C)C)OC3)c(C(C)(C)C)c1 (stereo unspecified)', 0.000473);

---

details: in methanol, 312.95 K
metric-name: solubility (mole fraction)

INSERT INTO assay_data (compound, result) VALUES
  ('CC(C)(C)c1ccc(OP2OCC3(CO2)COP(Oc2ccc(C(C)(C)C)cc2C(C)(C)C)OC3)c(C(C)(C)C)c1 (stereo unspecified)', '7.84e-05');

---

conditions: in tert-butanol, 308.05 K
metric-name: solubility (mole fraction)

INSERT INTO assay_data (compound, result) VALUES
  ('CC(C)(C)c1ccc(OP2OCC3(CO2)COP(Oc2ccc(C(C)(C)C)cc2C(C)(C)C)OC3)c(C(C)(C)C)c1 (stereo unspecified)', 0.000853);

---

settings: in tert-butanol, 313.15 K
metric-name: solubility (mole fraction)

INSERT INTO measurements (compound, result) VALUES
  ('CC(C)(C)c1ccc(OP2OCC3(CO2)COP(Oc2ccc(C(C)(C)C)cc2C(C)(C)C)OC3)c(C(C)(C)C)c1 (stereo unspecified)', 0.0012);
